- test: Cytotoxicity evaluation
- condition: human, Cytotoxicity (%), short treatment in the presence of S9 mix; 10 μg/mL (Table 7)
assayReadout: cytotoxicity at 10 μg/mL (%)
# unit: % | format: bare number

Report cytotoxicity at 10 μg/mL, nothing else, for this compound: O=P1(N(CCCl)CCCl)NCCCO1 (stereo not shown) [Cyclophosphamide, reference compound]
5.3

----------
- test: Cytotoxicity evaluation
- condition: human, Cytotoxicity (%), extended treatment in the absence of S9 mix; 10 mmol/L
assayReadout: cytotoxicity at 10 mmol/L (%)
# unit: % | format: bare number

Report cytotoxicity at 10 mmol/L, nothing else, for this molecule: CCCCC/C=C\C/C=C\CCCCCCCC(=O)OCC1(C)COC1
14.7
